Recorded values, source ChEMBL document CHEMBL4613327.

Species: Homo sapiens
Test: Selectivity index, ratio of Ki for inhibition of human CA4 to Ki for inhibition of human CA12
Hi there, I'd appreciate the recorded Ratio Ki for every entry that follows.

## Input Looking for the measured Ratio Ki of "CCCCCCN(CCCCCC)CC(=O)N(CCc1ccc(S(N)(=O)=O)cc1)Cc1ccc2ccccc2c1" , can you help?
## Output > 162

## Input Please do the same for "NS(=O)(=O)c1ccc(CCN(Cc2ccccc2)C(=O)CCN(Cc2ccccc2)Cc2ccccc2)cc1" as well.
## Output 15.3

## Input Please do the same for "CCCCCCN(CCCCCC)CC(=O)N(CCCN)CCc1ccc(S(N)(=O)=O)cc1" as well.
## Output 28.1

## Input Please do the same for "CCN(CC)CCC(=O)N(CCc1ccc(S(N)(=O)=O)cc1)Cc1ccccc1" as well.
## Output 64.3

## Input Please do the same for "NS(=O)(=O)c1ccc(CCNCc2ccc3ccccc3c2)cc1" as well.
## Output 79.5
